- target-entity: Proto-oncogene tyrosine-protein kinase Src (Homo sapiens, UniProt P12931)
- Sequence (P12931 2-536 limits assumed): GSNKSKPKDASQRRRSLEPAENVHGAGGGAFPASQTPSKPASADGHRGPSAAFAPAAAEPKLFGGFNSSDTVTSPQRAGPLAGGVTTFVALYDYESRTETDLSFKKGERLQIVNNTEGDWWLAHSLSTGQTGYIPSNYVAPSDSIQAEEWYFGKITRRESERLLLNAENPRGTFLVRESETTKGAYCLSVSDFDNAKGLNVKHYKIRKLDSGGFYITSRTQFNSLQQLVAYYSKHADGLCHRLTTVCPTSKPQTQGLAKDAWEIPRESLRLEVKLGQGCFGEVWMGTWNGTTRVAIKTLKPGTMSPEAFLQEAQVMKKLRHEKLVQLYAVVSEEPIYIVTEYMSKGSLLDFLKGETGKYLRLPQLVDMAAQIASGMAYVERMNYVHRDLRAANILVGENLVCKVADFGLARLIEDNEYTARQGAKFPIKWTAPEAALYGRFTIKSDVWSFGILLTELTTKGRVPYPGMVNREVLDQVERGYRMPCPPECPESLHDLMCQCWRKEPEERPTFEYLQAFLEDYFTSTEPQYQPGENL
- procedure-summary: Binding affinity was determined on Src protein tyrosine kinase SH2 domain using fluorescence polarization assay with 2% DMSO in buffer solution
The label 1 is reserved for IC50 strictly under 100 µM; -1 covers values equal to or above it.

Sample answers from the record:
CC(C)(C)OC(=O)N[C@H](Cc1ccc(OP(=O)(O)O)cc1)C(=O)NC1CSc2ccccc2N(CCCC2CCCCC2)C1=O (stereo partly specified)	-1
COc1ccc(C2Sc3ccccc3N(Cc3ccccc3)C(=O)C2NC(=O)[C@H](Cc2ccc(OP(=O)(O)OCc3ccccc3)cc2)NC(=O)OC(C)(C)C)cc1 (stereo partly specified)	1
COc1ccc(C2Sc3ccccc3N(Cc3ccc(-c4ccccc4C(=O)OC(C)(C)C)cc3)C(=O)C2NC(=O)[C@H](Cc2ccc(OP(=O)(O)OCc3ccccc3)cc2)NC(=O)OC(C)(C)C)cc1 (stereo partly specified)	1
CC(C)(C)OC(=O)N[C@@H](Cc1ccc(OP(=O)(O)O)cc1)C(=O)NC1CSc2ccccc2N(CCCC2CCCCC2)C1=O (stereo partly specified)	1
COc1ccc(C2Sc3ccccc3NC(=O)C2NC(=O)[C@H](Cc2ccc(OP(=O)(O)OCc3ccccc3)cc2)NC(=O)OC(C)(C)C)cc1 (stereo partly specified)	-1

Now let's try a different one.
Here's an entry: COc1ccc(C2Sc3ccccc3N(CC(=O)Nc3cccc4ccccc34)C(=O)C2NC(=O)[C@H](Cc2ccc(OP(=O)(O)OCc3ccccc3)cc2)NC(=O)OC(C)(C)C)cc1 (stereo in doubt; 3l) . Is its IC50 below 100 µM?
-1
